Run description: in vitro
Test context: African green monkey, Cytotox CC50
Entries annotated with measured CC50

Solved cases below.
CC12CC3CC(C(=O)N[C@H]4CN5CCC4CC5)(C1)CC(c1ccccc1)(C3)C2 (stereo partly drawn): > 10 µM
OCCN1CCN(CC(O)COc2ccc(C34CC5CC(CC(C5)C3)C4)cc2)CC1 (stereo not drawn): > 10 µM

Lab book: CC50 of CC12CC3CC(C(=O)NC4CCNCC4)(C1)CC(c1ccccc1)(C3)C2 (stereo not drawn) noted as > 10 µM

---

Entries annotated with measured pEC50
System: EBOV mucin-domain-deleted glycoprotein pseudotyped VSV
Run description: microbe, parasite or virus in culture
Type: cell-based, Zaire ebolavirus
Test context: Zaire ebolavirus, Vero, read-out: EC50 Pseudotype Assays EBOV
# log scale: pEC50 equals minus log10 of the concentration in mol/L

O=C(N1CCNCC1)C12CC3CC(C1)CC(c1ccccc1)(C3)C2: 6.59
CCN(CC)CCNc1nc(C23CC4CC(CC(C4)C2)C3)cs1: 6.64

Attention now turns to another entry.
Lab book: pEC50 of CC12CC3CC(C(=O)N[C@H]4CC[C@H](N)CC4)(C1)CC(c1ccccc1)(C3)C2.Cl (stereo partly drawn) noted as 7.70
